Entries and their measured GI50 follow.
system: UACC-257; experiment: NCI tumour cell line growth inhibition, 48 h
Activity calls are given as the source filed them. Rule as the data show it: active = GI50 up to about 1.1 µM and inactive = higher.

A selection of reference data follows.
COc1ccc2c(c1)-c1[nH]c3ccccc3c1CC2 ... 16.3 µM (inactive)
O=C1C=CC(=O)c2c1ccc1c3ccccc3n(Cc3cccc([N+](=O)[O-])c3)c21 ... 23 µM (inactive)
COc1c(C)c(C/C=C(\C)CC/C=C(\C)CCC=C(C)C)c(OC)c(OC)c1OC ... 64.9 µM (inactive)

Problem: Need GI50, item O=CC(O)C(O)C(O)C(O)COC(=O)NCCCCC(=O)C(F)(F)C(F)(F)C(F)(F)C(F)(F)C(F)(F)C(F)(F)C(F)(F)F (configuration not stated)
Solution: > 10 µM (inactive)

Problem: Need GI50, item `Cc1ccc(S(=O)(=O)SC(C)(C)C)cc1`
Solution: 21.6 µM (inactive)

Problem: Need GI50, item `Cc1cn([C@@H]2C[C@](C)(CO)N(C)O2)c(=O)[nH]c1=O`
Solution: > 100 µM (inactive)

Problem: Need GI50, item `Cc1ncc([N+](=O)[O-])n1CCNC(=O)CCCn1cnc([N+](=O)[O-])n1`
Solution: > 100 µM (inactive)

Problem: Need GI50, item `Oc1cc2c3c(c1)c1cc4c(cc1c[n+]3CC2)OCO4`
Solution: 8.83 µM (inactive)

Problem: Need GI50, item COC(=O)CCN1CCN(CCO)CC1C (configuration not stated)
Solution: > 10 µM (inactive)

Problem: Need GI50, item Cc1cc2c([nH]c3ccccc32)c2c1OC(C)(C)C1C3CC(C)(C)Oc4c(C)cc5c6ccccc6n(c5c43)C21 (configuration not stated)
Solution: > 100 µM (inactive)

Problem: Need GI50, item `COC(=O)[C@H](CNC(=O)/C=C/c1ccc(OC(C)=O)c(OC(C)=O)c1)NC(=O)/C=C/c1ccc(OC(C)=O)c(OC(C)=O)c1`
Solution: > 100 µM (inactive)

Problem: Need GI50, item CCCCCCCCCCCCCC(=O)OC1C(O)C(CO)OC(OC)C1NC(=O)N(CCCl)N=O (configuration not stated)
Solution: 28.8 µM (inactive)

Taken from ChEMBL document CHEMBL1201862.
